Ref: ChEMBL document CHEMBL1909046

assay: DRUGMATRIX: Glutamate, NMDA, Agonism radioligand binding (ligand: [3H] CGP-39653); type: cell membranes, Rattus norvegicus, Wistar, Cerebral cortex, Membrane; details: Not Active = under 50% inhibition at 10 µM
Observation Type: IC50

[
  {
    "Molecule": "Oc1c(Cl)cc(Cl)c(Cl)c1Cc1c(O)c(Cl)cc(Cl)c1Cl [HEXACHLOROPHENE]",
    "Value Measured": "Not Active"
  },
  {
    "Molecule": "C#CC1(O)CC[C@H]2[C@@H]3CCC4=CC(=O)CC[C@@H]4[C@H]3CC[C@@]21CC (stereo partly drawn) [NORGESTREL]",
    "Value Measured": "Not Active"
  },
  {
    "Molecule": "C[C@H]1O[C@@H](n2cc(F)c(=O)[nH]c2=O)[C@H](O)[C@@H]1O [DOXIFLURIDINE]",
    "Value Measured": "Not Active"
  }
]
